- Test system: MS2 coat protein
- assay-notes: apparent KD of MS2 coat protein; designed switch direction (-1 OFF switch, 1 ON switch): -1; higher = weaker reporter binding
- condition-summary: input ligand: none
Each entry below lists one item and its recorded apparent KD of MS2 coat protein value.
measure: apparent KD of MS2 coat protein (nM)

polymer-sequence: UUUUCCAGAGGAUAUGCGAAUAAAUAAAACUUUUUUUUUUAACAUGAGGAUCACCCAUGUAGAAGGCUGCUUUU [Ex2 #27] (Eterna round: R97, puzzle: Exclusion 2)
measure: apparent KD of MS2 coat protein
unit-text: nM
numeric-result: 30.1
--
polymer-sequence: CACCUGAAGACAGGAUAUCAUACAUGAGGAUCACCCAUGUAAUAAAUGAGAAUUUCGAAUGUAAUUGAGAAGGGUCAAUAAGGC [Ostricism 96 - Jieux - Exclusion NG 2] (Eterna round: R96, puzzle: Exclusion NG 2)
measure: apparent KD of MS2 coat protein
unit-text: nM
numeric-result: 29.2
--
polymer-sequence: GGUACUCAAAGAGUACCAAUACGAACAUGAGGAUCACCCAUGUAGGAUAUGCUACUCAAAGAGUAGCAGAAGGACAUGUACCUU [Far Half Aptamer v6] (Eterna round: R96, puzzle: Exclusion NG 3)
measure: apparent KD of MS2 coat protein
unit-text: nM
numeric-result: 29.5

###

Each entry below lists one item and its recorded apparent KD of MS2 coat protein value.
- Tested on: MS2 coat protein
- assay-notes: apparent KD of MS2 coat protein; higher = weaker reporter binding
- condition-summary: Eterna round: R107; input ligand: none

polymer-sequence: AAACGCCACGGAAGGAGCGACAUGAGGAUCACCCAUGUAGAUUUGGCGGAUGCACCCUCCUGUCAGGUAGGUCGCCGUGCGAUAA [XArg-B25]
study-target: MS2 coat protein
apparent KD of MS2 coat protein / nM: 60.8
//
polymer-sequence: AGAGUCAGACAAAAGUCUGGCUCAGCCGAAGGAGCGUCCGAAAGGACAGGUAGGUCGCGGUUACUUGAGGAUCACCCAAGUUCCU [ArgAS 26 #OpenEnded #AlternativeMS2]
study-target: MS2 coat protein
apparent KD of MS2 coat protein / nM: 163
//
polymer-sequence: GGAUAGGACACGGCCGCCACUAGCUAGGAUACUAGCAACAUUUCCUCACAAGAGGAUCACCCUUGUAGGACCGGGUGUCCUAUCG
study-target: MS2 coat protein
apparent KD of MS2 coat protein / nM: 93.7
//
polymer-sequence: AGUCUCAGUGGAAGGAGCGUCGCGACUGCUACAUGAGGAUCACCCAUGUCGCCUUGAGCGCGACAGGUAGGUCGCCACGGUAGGC [Erraraorle]
study-target: MS2 coat protein
apparent KD of MS2 coat protein / nM: 17.5
//
polymer-sequence: GGACUAACCAGAAGGAGCGACGCGCAGAAACUGCAAAUUCCUCCACACGAGGAUCACCCGUGUCAGGUAGGUCGCUGGUUAGUCG
study-target: MS2 coat protein
apparent KD of MS2 coat protein / nM: 16.6
//
polymer-sequence: UGACAUGAGGAUCACCCAUGUUUAGAUGAACGAGGACCGGUACGGCCGCCACUCGAUAAGUGGAAAGAGCGAGGGAUCGCAUGCU [Same State Trp A GF5]
study-target: MS2 coat protein
apparent KD of MS2 coat protein / nM: 12.9
//
polymer-sequence: GACAUGAGGAUCACCCAUGUACCGCGAGAAGGAGCGCGGAUAAACGCAGGUAGGUCGCUCGUGGGCUUGUAUUCAAUCGUAAGCU [Anlaaranan]
study-target: MS2 coat protein
apparent KD of MS2 coat protein / nM: 108
//
polymer-sequence: UGAUUGAACGGAAGGAGCGUGAAGAGAGAGAAACAUGAGGAUCACCCAUGUAGAGAGAGAUCACAGGUAGGUCGCCGAGAGAUUG [11.C]
study-target: MS2 coat protein
apparent KD of MS2 coat protein / nM: 15
//
polymer-sequence: AAUUACAUGAGGAUCACCCAUGUGGCACAACGAGGACCGGUACGGCCGCCACUCGGUGCUGUACCACAAAACAUGCACGGGAAAG [theeternabot_sameState_MS2_Trp_A_6]
study-target: MS2 coat protein
apparent KD of MS2 coat protein / nM: 31.6
//
polymer-sequence: UUCAGCUAGUCGGCCGCCACUACAUGAGGAUCACCCAUGUAGGUCCACACUGCUUCGGCAGUGAGUAGGACCGGGACUAGCUGAG
study-target: MS2 coat protein
apparent KD of MS2 coat protein / nM: 9.66

###

- System: K4 kissing-loop RNA reporter
- assay-notes: apparent KD of K4 kissing-loop reporter; higher = weaker reporter binding
- condition-summary: Eterna round: R107; input ligand: arginine 13.2 mM
Each entry below lists one item and its recorded apparent KD of K4 kissing-loop reporter value.

polymer-sequence: UUUGGUUUCUCGGCCGCCACUCGUUGGUAAUGGGCCUCAGGGAUAUAGUGAUGUUAUGUAAAGAAGAGGACCGGGAGAAGGAAGG [ExTryptoB.Dn]
study-target: K4 kissing-loop RNA reporter
apparent KD of K4 kissing-loop reporter [µM]: 0.229
--
polymer-sequence: CGUUUAUAGCAGGAUACCAGUACCGAUAAAGUACGUUAAUAGUAGAGUGAUGUUCUAAAGUACCCUUGGCAGCUUAGAGUGAGUG [ExTheophylB.P]
study-target: K4 kissing-loop RNA reporter
apparent KD of K4 kissing-loop reporter [µM]: 0.142
--
polymer-sequence: UUUAAAUAUAGUGAUGUUAUAUAACAAUGACGAGGACCGGUACGGCCGCCACUCGAGAGAGAUAAUGGUCAUACAAAUGUAUGUC [AstrosSSTryA#7]
study-target: K4 kissing-loop RNA reporter
apparent KD of K4 kissing-loop reporter [µM]: 0.706

###

- Tested on: K4 kissing-loop RNA reporter;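 note: bound reporter read as fluorescence of individual clusters on recovered sequencing chips by microscopy, with normalized cluster intensities fitted with a binding model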
- assay-notes: apparent KD of K4 kissing-loop reporter; higher = weaker reporter binding
- condition-summary: Eterna round: R107; input ligand: arginine 13.2 mM
# binarize apparent KD of K4 kissing-loop reporter: threshold 200 nM inclusive, high side True, low side False

polymer-sequence: GUUAAUAGUAGUGAUGUUACAAUAGUUUGUGAGGAUAUCCCGAAAGGGAGAAGGCACAAACAAAUAGAUUCUCACAAAUAUUUAC [FMN A exclusion]
group: False
--
polymer-sequence: AACGCUGGUGAAUAACACUAGCGAAAUUCGCGAGGACCGGUACGGCCGCCACUCGCUAACUGCGAGUGAUGUUCGAUAAUAAAAU [Mat - Mod of OpenEnded 3 - D7]
group: False
--
polymer-sequence: CGCAGUGAUGUUGUGAUUAACUACAGGGAAGGAGCGUGCUAGAGCACAGGUAGGUCGCCCAGUGGCCGAGUGAUGUUCGGCGGGU [Same State Arginine A GF 27]
group: False
--
polymer-sequence: AUUUUUUUAUCAGGAUAUUAGUGAUGGUUGUUUUUGUUAGUGAUGUUGAUAUUUGUUUUAUGUAUUUAAGAAGGGAUUGAGAUGU [zbbzmullin]
group: False
--
polymer-sequence: GGUGCUGUUUGUGCCGCCUUCCUCGUUCCUCGAGGACCGGUACGGCCGCCACUCGAGUGAUGUUUGGGUAGCGAUCCCUGCUAGU [Bdazzled - #13 Exc. Tryptophan A]
group: True

###

- Tested on: MS2 coat protein
- assay-notes: apparent KD of MS2 coat protein; designed switch direction (-1 OFF switch, 1 ON switch): -1; higher = weaker reporter binding
- condition-summary: input ligand: FMN 200 uM

polymer-sequence: CAGUACUGAGGAUAUACAUGAGGAUCACCCAUGUGUAGAUGAAAAUUAAUUUUAUUAUGUAGAAGGCGGUGCUG [JR_Ex3_Sub045] (Eterna round: R97, puzzle: Exclusion 3)
apparent KD of MS2 coat protein (nM): 85.1
//
polymer-sequence: UUUUGGCAAGCGAGAUCCUACAUGAGGAUCACCCAUGUUGACCAUGGUUUCCAUGGUCUUUUUGCUCGUCUUGUGUG [jl TITIN mod 3] (Eterna round: R97, puzzle: Sensor, turn-off variant 1)
apparent KD of MS2 coat protein (nM): 21.1
//
polymer-sequence: UAUUAGCAAGCAAAUGGGUACAUGAGGAUCACCCAUGUGCUCGUCUUAUAAGGUACUGUGACGAACGUCACGGUACC [mod--Eli5] (Eterna round: R97, puzzle: Sensor, turn-off variant 1)
apparent KD of MS2 coat protein (nM): 27.8
//
polymer-sequence: UGAUCACAUGAGGAUCACCCAUGUCAGGAUAUCUACAUUGAAGCCUCGGCUUCAAUGUAGAGAAGGGAUAUAAU [E1/5-B2] (Eterna round: R97, puzzle: Exclusion 1)
apparent KD of MS2 coat protein (nM): 189
//
polymer-sequence: AAUCCUGAAGUUAGGAUAUGAAGUAUCACUGCACUUCAGAAGGGACUUGAGGAUCACCCAAGUAGCCGUGAGGC [jl-bmx4.4.61 ViennaUCT mod] (Eterna round: R97, puzzle: Brourd's mod of Exclusion 4)
apparent KD of MS2 coat protein (nM): 156
//
polymer-sequence: GAAUGAGAGCAGGAUAUCUUAUAAAUGUAUGAAAGAGAAGGGCUCACAUGAGGAUCACCCAUGUGGUCCUAGAC [jl-ex6-4.72 jandersonlee mod] (Eterna round: R97, puzzle: Exclusion 6)
apparent KD of MS2 coat protein (nM): 309
//
polymer-sequence: ACGCAUUGCCAAAGGUAGUGCGUUACAUGAGGAUCACCCAUGUAGGAUAUGGUAGGCAAAGCUUACCAGAAGGACAUGAUAAUU [Mat - Exclusion NG 3 - Mod of JL - D6] (Eterna round: R96, puzzle: Exclusion NG 3)
apparent KD of MS2 coat protein (nM): 227
//
polymer-sequence: ACACCGCAAGGAUAUACUUGCGGUGGUGUUCGAAGCUUUCUACUUGAGGAUCACCCAAGUAGAAGGUGCGGUGU [jl-ex2.4.73 ViennaUCT mod] (Eterna round: R97, puzzle: Exclusion 2)
apparent KD of MS2 coat protein (nM): 12.8
//
polymer-sequence: CCUUGACAUGAGGAUCACCCAUGUGAGGAUAUGAUGCGAUCGUCGAAAGACGAUAGCAUCAGAAGGCACAUAUG [Fiskers Ex 1 - 8] (Eterna round: R96, puzzle: Exclusion 1)
apparent KD of MS2 coat protein (nM): 91.8
//
polymer-sequence: GAGUACUGAGGAUAUACAUGAGGAUCACCCAUGUGUUCCAACUAGGAAUCUAGAGUAUGUAGAAGGCAGUGCUG [salish99_ex3_r4_704] (Eterna round: R97, puzzle: Exclusion 3)
apparent KD of MS2 coat protein (nM): 145
//
polymer-sequence: ACCUUACUGGUCAGGAUAUACAGUCUCGGGUGGGUGUAGAAGGGACAUGAGGAUCACCCAUGUAGGUUGCAGCA [alecazam56] (Eterna round: R97, puzzle: Brourd's mod of Exclusion 4)
apparent KD of MS2 coat protein (nM): 100
//
polymer-sequence: CUGUGCACGCUGCGGUCCUACAUGAGGAUCACCCAUGUGGUCUGGUGGCGUGGGUCGCCGGACUUGGCUCGUCUUGG [salish99_S_TOV1_R5_025] (Eterna round: R97, puzzle: Sensor, turn-off variant 1)
apparent KD of MS2 coat protein (nM): 15.3
